molecular target: Potassium-transporting ATPase (Canis familiaris); test: Inhibitory activity against dog gastric proton-pump enzyme H+/K+ ATPase
pIC50: −log10 of the molar value.
experimentalReadout: pIC50

Sample answers from the record:
{"columns": ["entrySmiles", "measurement"],
 "data": [
  ["Cc1[nH]c2ccc(Cl)cc2c1-c1nc(NC(=N)NCc2ccccc2)sc1C", 5.96],
  ["N=C(N)Nc1nc(-c2c[nH]c3ccc(OCc4ccccc4)cc23)cs1", 5.92],
  ["Cc1ccccc1-c1csc(NC(=N)NCc2ccccc2)n1", 5.00]
]}

A: NC(N)=Nc1nc(-c2ccccc2)cs1
B: Cc1ccc2[nH]cc(-c3csc(NC(=N)NCc4ccccc4)n3)c2c1
Query: Could you tell me which of these two has the smaller pIC50 figure? First: A Second: B Label of pick, please.
Response: A

A: N=C(N)Nc1nc(-c2ccc[nH]2)cs1
B: NC(N)=Nc1cc(Cl)nc(-c2ccccc2)n1
Query: Would you let me know which has the greater pIC50 value, A or B ? Label of pick, please.
Response: B
(B: 5.22, A: 4.52)

I: N=C(N)Nc1nc(-c2ccc(F)cc2)cs1
II: Cl.N=C(NCc1ccccc1)Nc1nc(-c2c[nH]c3ccc(Br)cc23)cs1
Query: Would you let me know which has the greater pIC50 value, I or II ? Label of pick, please.
Response: II
(II: 6.15, I: 4.48)

P: Cc1cc(-c2csc(N=C(N)N)n2)c[nH]1
Q: N/C(=N\Cc1ccccc1)Nc1nc(-c2ccccc2O)cs1
Query: Would you let me know which has the greater pIC50 value, P or Q ? Label of pick, please.
Response: Q
(Q: 4.96, P: 4.60)

Where do the numbers come from? From ChEMBL document CHEMBL1125091.
